Data provenance: PubChem BioAssay (NCI)

Below, each entry is listed with its recorded GI50.
- System: MDA-MB-435
PROPERTY MEASURED: GI50

| MOLECULE | PROPERTY MEASURED | MEASURED RESULT |
| --- | --- | --- |
| COc1ccc(-n2cc(-c3cc(OC)c(OC)c(OC)c3)[nH]c2=O)cc1Cl | GI50 | > 100 µM |
| COC(=O)[C@H](Cc1c[nH]c2ccccc12)NC(=O)[C@@H](OC)[C@@H]1Cc2cc3cc(OC4CC(OC5CC(O)C(O)C(C)O5)C(O)C(C)O4)c(C)c(O)c3c(O)c2C(=O)[C@H]1OC1CC(OC2CC(OC3CC(C)(O)C(O)C(C)O3)C(O)C(C)O2)C(O)C(C)O1 (stereo partly specified) | GI50 | 0.00784 µM |
| COc1ccccc1Cn1cc2c(c1-c1ccccc1)CCc1cnoc1-2 | GI50 | 0.279 µM |
| CC[CH2][Sn]([Cl])([Cl])[CH2]CC.Oc1ccccc1C=NCCN=Cc1ccccc1O | GI50 | 7.3 µM |
| C=C1C(=O)O[C@H]2[C@H]1CC/C(COC(=O)c1cc3ccccc3s1)=C\CC[C@@]1(C)O[C@@H]21 | GI50 | 1.33 µM |
| Fc1ccc(-c2nn3ncccc3c2-c2ccnc(Nc3ccc4c(c3)OCCO4)n2)cc1 | GI50 | 4.9 µM |
| O=C(/C=C\n1cnc(-c2cc(C(F)(F)F)cc(C(F)(F)F)c2)n1)NNc1cnccn1 | GI50 | 0.0533 µM |
| Cc1ccc(NC(=O)NCCCOc2ccc(N3C(N)=NC(N)=NC3(C)C)cc2Cl)cc1S(=O)(=O)F | GI50 | 4.46 µM |
| COC(=O)C12C3C4C1C1C2C3C41NC(=O)c1csc([C@@H](C[C@H](C(C)C)N(C)C(=O)[C@@H](NC(=O)[C@H]2CCCCN2C)C2CC2)OC(C)=O)n1 (stereo partly specified) | GI50 | < 0.00333 µM |
| Cc1ccc2[nH]c(C(=O)NN3C(=O)C(C)SC34CCCC(C)C4)c(-c3ccccc3)c2c1 (stereo unspecified) | GI50 | > 100 µM |
| CCN(CC)CCCC(C)Nc1cnc(C(=O)Nc2cccc3ccc(OC)nc23)cn1 (stereo unspecified) | GI50 | 1.77 µM |
| C=C[C@H]1C[C@@H]2C[C@@H]3[C@H]4C/C=C\C(=O)NCCCC5NC(=O)C(=C(O)/C=C/[C@@H]4CC(=O)[C@H]3[C@@H]2[C@H]1C)C5=O (stereo partly specified) | GI50 | 0.203 µM |
| COc1ncc(-c2ccc3ncnc(Nc4cccc(Cl)c4)c3c2)cc1NS(=O)(=O)CCN1CCOCC1 | GI50 | 0.534 µM |
| C=C1CC[C@@H]2[C@](C)(COC(C)=O)[C@H](OC(C)=O)CC[C@@]2(C)[C@@H]1CC(Nc1ccc(S(=O)(=O)Nc2ncccn2)cc1)C1=CCOC1=O (stereo partly specified) | GI50 | 1.58 µM |
| COc1ccc2nc3cc(Cl)ccc3c(NCCN)c2c1 | GI50 | 1.76 µM |
| CC1(C)N=C(N)N=C(N)N1c1ccc(OCc2ccc(S(=O)(=O)F)c(Cl)c2)c(Cl)c1 | GI50 | 0.558 µM |

====

- System: DU-145 prostate
- PROCEDURE TEXT: NCI tumour cell line growth inhibition, 48 h; in the data active = GI50 below about 0.43 µM; inactive = the rest
Possible outcomes: true (1) (active), false (0) (inactive)

| COMPOUND | ASSIGNED LABEL |
| --- | --- |
| COc1ccc(-c2nnc(COc3ccc(NC(=O)Nc4ccc(Cl)c(C(F)(F)F)c4)cc3F)o2)cc1 | false (0) |
| Fc1ccc(-c2nn3ncccc3c2-c2ccnc(Nc3ccc4c(c3)OCCO4)n2)cc1 | false (0) |
| COC(=O)c1c(C)[nH]c(/C=C2\N=C(c3ccc[nH]3)C=C2OC)c1C | true (1) |
| Cc1ccc(NC(=O)NCCCOc2ccc(N3C(N)=NC(N)=NC3(C)C)cc2Cl)cc1S(=O)(=O)F | false (0) |
| COc1cc2c3c(n(C)c(=O)c2cc1OC)-c1cc2c(cc1/C3=C\CNCCCN)OCO2 | false (0) |
| CCOC(=O)c1c(C)nc2c(c1N)/C(=C/c1ccc(OC)cc1)C(=O)N2Cc1ccc(F)cc1 | true (1) |
| Cc1ccc2c3c(c(=O)[nH]c2c1)C1(C(C#N)=C(N)O3)c2cc(Br)ccc2-c2ccc(Br)cc21 | false (0) |
| COc1cc2c3c(n(CCNCCCNCCn4c5c(c6cc(OC)c(OC)cc6c4=O)C(=O)c4ccccc4-5)c(=O)c2cc1OC)-c1ccccc1C3=O | true (1) |
| Cc1ccc(NC(=O)c2sc3nc(C)c(C(O)c4ccccc4)cc3c2N)cc1 (stereo unspecified) | true (1) |
| COc1cc(NS(=O)(=O)c2ccc(-c3cnc(C4CC4)o3)cc2)ccc1F | false (0) |
| C=C[C@H]1C[C@@H]2C[C@@H]3[C@H]4C/C=C\C(=O)NCCCC5NC(=O)C(=C(O)/C=C/[C@@H]4CC(=O)[C@H]3[C@@H]2[C@H]1C)C5=O (stereo partly specified) | true (1) |
| CCN(CC)CCCC(C)Nc1cnc(C(=O)Nc2cccc3ccc(OC)nc23)cn1 (stereo unspecified) | false (0) |
| O=C(/C=C\n1cnc(-c2cc(C(F)(F)F)cc(C(F)(F)F)c2)n1)NNc1cnccn1 | true (1) |
| COc1ccc(C2SCC(=O)N2NC(=O)Nc2c(C)nc3ccccn23)cc1 (stereo unspecified) | false (0) |
| O=C1NN(C2=NNC3(C(=O)N2)c2ccccc2-c2ccccc23)C(c2ccccc2)=N/C1=C/c1ccc(O)cc1 | false (0) |
| CC1(C)N=C(N)N=C(N)N1c1ccc(OCc2ccc(S(=O)(=O)F)c(Cl)c2)c(Cl)c1 | false (0) |

====

- Test system: HT29 colon
- PROCEDURE TEXT: NCI tumour cell line growth inhibition, 48 h
Label Criterion met when TGI is at or above 30 µM; anything below gets Criterion not met.

| MOLECULE | ASSIGNED LABEL |
| --- | --- |
| Nc1ncn(C2CC(O)C(CO)O2)c(=O)n1 (stereo not given) | Criterion met |
| COC(=O)c1c(C)[nH]c(/C=C2\N=C(c3ccc[nH]3)C=C2OC)c1C | Criterion met |
| Cc1cc(O)c(C(C)(C)C)cc1Sc1cc(C(C)(C)C)c(O)cc1C | Criterion not met |
| COc1cc2c(c(OC)c1OC)C(=O)[C@@H]1c3ccc([N+](=O)[O-])cc3C(=O)N(CCCBr)[C@H]21 | Criterion met |
| C=CC1(C)CCC2=C(CCC3C(C)(C(=O)OC)CCCC23C)C1=O (stereo not given) | Criterion met |
| COc1ccc(/C=C\c2cc(OC)c(OC)c(OC)c2)cc1OC(=O)NCCN(C)C | Criterion not met |
| C/C(=C1/CCC/C(=C(/C)c2ccccc2)C1=O)c1ccccc1 | Criterion met |
| CCNc1cc2c(cc1O)CC[C@@H]1[C@@H]2CC[C@]2(C)[C@@H](O)CC[C@@H]12 | Criterion met |
| O=C1/C(=C/c2ccc(O)cc2)CSc2ccc(Cl)cc21 | Criterion met |

====

- System: SW-620 colon
- PROCEDURE TEXT: NCI tumour cell line growth inhibition, 48 h

| MOLECULE | VALUE OPERATOR | TGI [µM] |
| --- | --- | --- |
| Cc1nc(-c2ccccc2)c(-c2ccccc2)s1 | = | 39.6 |
| CC[C@H](C)[C@H]1O[C@]2(C=C[C@@H]1C)C[C@@H]1C[C@@H](C/C=C(\C)[C@@H](O[C@H]3C[C@H](OC)[C@@H](O[C@H]4C[C@H](OC)[C@@H](NC)[C@H](C)O4)[C@H](C)O3)[C@@H](C)/C=C/C=C3\CO[C@@H]4[C@H](O)C(C)=C[C@@H](C(=O)O1)[C@]34O)O2 | = | 4.74 |
| Cc1ccc(NC(=S)N/N=C(/c2ccccc2)c2ccccn2)cc1 | = | 20.9 |
| CC(C)Oc1ccc2c(c1)OCC1Cc3ccccc3OC21 (centres undefined) | > | 100 |
| CCOC(=O)c1c(C)nc2c(c1N)/C(=C/c1ccc(OC)cc1)C(=O)N2Cc1ccc(F)cc1 | = | 0.349 |
| CCCCCN(CCCCC)CC(O)c1ccc(Cl)c2ccccc12 (centres undefined) | = | 13.6 |
| CCO/N=C(/N)c1ncn(Cc2ccccc2)c1NCC(OCC)OCC | > | 100 |
| COC(=O)C1C(=O)C=CN([C@H](C)c2ccccc2)[C@@H]1Cc1ccc(OC)c(OCc2ccccc2)c1I (some centres undefined) | > | 100 |
| COc1cc2c(c(OC)c1)C1(CC(CC#N)C2)SCCS1 (centres undefined) | > | 100 |
| COc1ccc(CCN2CCN(CCc3ccc(OC)cc3)CC2)cc1 | > | 100 |
| O=C1N[C@@H](c2c[nH]c3cc(Br)ccc23)C(=O)N[C@H]1c1c[nH]c2cc(Br)ccc12 | > | 100 |
| CN(C)/C=N/S(=O)(=O)c1nn2c(C=O)c(-c3ccc(Cl)cc3)nc2s1 | = | 1.52 |
| O=C(/C=C\n1cnc(-c2cc(C(F)(F)F)cc(C(F)(F)F)c2)n1)NNc1cnccn1 | = | 13.3 |
| CCNc1cc2c(cc1O)CC[C@@H]1[C@@H]2CC[C@]2(C)[C@@H](O)CC[C@@H]12 | = | 19 |
| CCn1c2ccccc2n2c(=O)c3c(c(C#N)c12)CCCC3 | > | 100 |
| CCOP(=O)(O)C1C(CO)OC(n2ccc(=O)[nH]c2=O)C1O (centres undefined) | > | 100 |
| CC(=O)OCCOCn1cnc2c(Cl)nc(Cl)nc21 | = | 30.7 |
| CCOC(=O)C(Cc1cn(S(=O)(=O)c2ccccc2)c2ccccc12)(NC(C)=O)C(=O)OCC | > | 100 |
| CC(=O)Nc1ccc2[nH]c(C(=O)N3CC(CCl)c4c3cc(N)c3ccccc43)cc2c1 (centres undefined) | > | 100 |
